The reader will find reported pEC50 values listed item by item below.
# System: Human Colon Cancer cells Colo205
# Method notes: Cell proliferation experiment (Alarm blue), Colo205
# Format: cell-based
# Conditions used: Homo sapiens, COLO 205, 72 h, Colo205 cells, 72 h culture; read-out: Anti cell proliferative activity EC50, Colo205
pEC50: −log10 of the molar value.

Molecule	pEC50
NC(=O)c1ccccc1Nc1nc(Nc2ccc(N3CCN(C(=O)N[C@H]4C[C@@H](NCCC#Cc5ccc6c(c5)CN(C5CCC(=O)NC5=O)C6=O)C4)CC3)cc2)ncc1Cl (some centres unmarked)	7.47
NC(=O)c1ccccc1Nc1nc(Nc2ccc(N3CCN(C(=O)N[C@H]4C[C@H](NCCC#Cc5ccc6c(c5)CN(C5CCC(=O)NC5=O)C6=O)C4)CC3)cc2)ncc1Cl (some centres unmarked)	7.61
CNC(=O)c1ccccc1Nc1nc(Nc2ccc(N3CCN(C(=O)CNCCC#Cc4ccc5c(c4)CN(C4CCC(=O)NC4=O)C5=O)CC3)cc2)ncc1Cl (centres unmarked)	7.68
NC(=O)c1ccccc1Nc1nc(Nc2ccc(N3CCN(C(=O)CNCCC#Cc4ccc5c(c4)CN(C4CCC(=O)NC4=O)C5=O)CC3)cc2)ncc1Cl (centres unmarked)	7.67
NC(=O)c1ccccc1Nc1nc(Nc2ccc(N3CCN(C(=O)NC4CCN(C(=O)CNCCC#Cc5ccc6c(c5)CN(C5CCC(=O)NC5=O)C6=O)CC4)CC3)cc2)ncc1Cl (centres unmarked)	6.84

* * *

The reader will find reported pEC50 values listed item by item below.
# System: Human Small Cell Lung Cancer H69
# Method notes: Cell proliferation experiment (Alarm blue), H69
# Format: cell-based
# Conditions used: Homo sapiens, NCI-H69; H69 cells, 72 h culture; read-out: Anti cell proliferative activity EC50, H69
pEC50: −log10 of the molar value.

Compound	Measurement target	Result modifier	pEC50
CNC(=O)c1ccccc1Nc1nc(Nc2ccc(N3CCN(C(=O)N[C@H]4CC[C@@H](N(CCC#Cc5ccc6c(c5)CN(C5CCC(=O)NC5=O)C6=O)C(=O)OCc5ccc(NC(=O)[C@H](CC(N)=O)NC(=O)[C@H](C)NC(=O)[C@H](C)NC(=O)COCCOC)cc5)CC4)CC3)cc2)ncc1Cl (stereo partly shown)	Human Small Cell Lung Cancer H69	<	6.00
NC(=O)c1ccccc1Nc1nc(Nc2ccc(N3CCN(C(=O)NC4CCN(C(=O)CNCCC#Cc5ccc6c(c5)CN(C5CCC(=O)NC5=O)C6=O)CC4)CC3)cc2)ncc1Cl (stereo not shown)	Human Small Cell Lung Cancer H69	<	6.00
NC(=O)c1ccccc1Nc1nc(Nc2ccc(N3CCN(C(=O)CNCCC#Cc4ccc5c(c4)CN(C4CCC(=O)NC4=O)C5=O)CC3)cc2)ncc1Cl (stereo not shown)	Human Small Cell Lung Cancer H69	=	6.43
NC(=O)c1ccccc1Nc1nc(Nc2ccc(N3CCN(C(=O)N[C@H]4C[C@@H](NCC#Cc5ccc6c(c5)CN(C5CCC(=O)NC5=O)C6=O)C4)CC3)cc2)ncc1Cl (stereo partly shown)	Human Small Cell Lung Cancer H69	=	7.50
CNC(=O)c1ccccc1Nc1nc(Nc2ccc(N3CCC(NCC#Cc4ccc5c(c4)CN(C4CCC(=O)NC4=O)C5=O)CC3)cc2)ncc1Cl (stereo not shown)	Human Small Cell Lung Cancer H69	<	6.00
C[C@H](NC(=O)CCCCCN1C(=O)C=CC1=O)C(=O)N[C@@H](C)C(=O)N[C@@H](CC(N)=O)C(=O)Nc1ccc(COC(=O)N(CCC#Cc2ccc3c(c2)CN(C2CCC(=O)NC2=O)C3=O)C2CCC(NC(=O)N3CCN(c4ccc(Nc5ncc(Cl)c(Nc6ccccc6C(N)=O)n5)cc4)CC3)CC2)cc1 (stereo partly shown)	Human Small Cell Lung Cancer H69	=	6.02
CNC(=O)c1ccccc1Nc1nc(Nc2ccc(N3CCN(C(=O)N[C@H]4C[C@@H](NCC#Cc5ccc6c(c5)CN(C5CCC(=O)NC5=O)C6=O)C4)CC3)cc2)ncc1Cl (stereo partly shown)	Human Small Cell Lung Cancer H69	<	6.00
